These data points were gathered from PubChem BioAssay (NCI).

Assay: NCI Yeast Anticancer Drug Screen. Data for the mlh1 rad18 strain (AID 175)
Details: S. cerevisiae mlh1 rad18 strain growth inhibition; at 50.0 µM; stronger effect = higher value
About 79,000 compounds went through this panel and 15% of them were active in at least one assay; those are over-represented in the sample as a whole.
readout: growth inhibition (%)

- molecule: "C=CC/C=C/CCC"
  readout: "growth inhibition"
  observed: -9.7
- molecule: "CNc1c(F)cc(C#N)cc1F"
  readout: "growth inhibition"
  observed: 10.8
- molecule: "COc1ccc(C2(C)OCCC(C)O2)cc1 (centres undefined)"
  readout: "growth inhibition"
  observed: 10.6
- molecule: "CO/N=C1/c2sccc2[C@H](NC(=O)C(Cc2ccccc2)NC(=O)OC(C)(C)C)[C@@H]1O (some centres undefined)"
  readout: "growth inhibition"
  observed: 13.7
